Cited source for all entries: patent US20200024246A1

- Test system: adult female mosquitoes
- test method notes: whole plant or invertebrate
- protocol conditions: 0.5% concentration
parameter: Mosquito Mortality at 0.5% concentration (%)
Give your result in % as a bare value.

Some solved entries appear below for comparison.
                             compound          measured_target                                 parameter  endpoint_result
0  Cc1cc(O)c(C(=O)COCc2ccccc2)c(=O)o1  adult female mosquitoes  Mosquito Mortality at 0.5% concentration               23
1    Cc1cc(O)c(C(=O)CSCC(=O)O)c(=O)o1  adult female mosquitoes  Mosquito Mortality at 0.5% concentration               43

[Q] Given Cc1cc(O)c(C(=O)CC(O)C(C)C)c(=O)o1 (centres unmarked) , respond with its Mosquito Mortality at 0.5% concentration.
[A] 100

[Q] Given COCC(=O)c1c(O)cc(C)oc1=O , respond with its Mosquito Mortality at 0.5% concentration.
[A] 73

[Q] Given CCOCC(=O)c1c(O)cc(C)oc1=O , respond with its Mosquito Mortality at 0.5% concentration.
[A] 73
